# Experiment notes: Exploratory trial: plasma concentration of rikkunshito ingredients after single oral rikkunshito 7.5 g
# Type: in vivo
# Test conditions: human, in vivo, po
# Method: A random sequence was generated using a computer. The safety endpoint was evaluated in all volunteers. […] For quantification of synephrine, 5 µL of standard solution or methanol was added to 100 µL plasma or urine samples followed by mixing. […] For quantification of 30 ingredients other than atractylodin and synephrine, 25 µL of standard solution or methanol was added to 500 µL plasma or urine samples followed by mixing. […]
Property label: concentration at 0.5 h

- Compound smiles: "O=C1C[C@@H](c2ccc(O)cc2)Oc2cc(O)cc(O)c21"
  Property label: "concentration at 0.5 h"
  Obs value: "0.0358 ng/mL"
- Compound smiles: "O=C(/C=C/c1ccc(O)cc1)c1ccc(O)cc1O"
  Property label: "concentration at 0.5 h"
  Obs value: "0.0153 ng/mL"
- Compound smiles: "COc1ccc(-c2cc(=O)c3c(OC)c(OC)c(OC)c(OC)c3o2)cc1"
  Property label: "concentration at 0.5 h"
  Obs value: "0.00573 ng/mL"

====

# Experiment notes: Exploratory trial: amount of rikkunshito ingredients in urine
# Assay type: in vivo, human
# Test conditions: 0–4 h after single oral rikkunshito 7.5 g; mean ± S.D., n = 4
Reported Amount in urine, 0–4 h by item:
Property label: Amount in urine, 0–4 h (ng)

- Molecule: "CNCC(O)c1ccc(O)cc1 (centres unmarked) [Synephrine]"
  Obs value: 2150
- Molecule: "CC(C)=CCC[C@](C)(O)[C@H]1CC[C@]2(C)[C@@H]1[C@H](O)C[C@@H]1[C@@]3(C)CC[C@H](O)C(C)(C)[C@@H]3[C@@H](O[C@@H]3O[C@H](CO)[C@@H](O)[C@H](O)[C@H]3O[C@@H]3O[C@H](CO)[C@@H](O)[C@H](O)[C@H]3O)C[C@]12C [Ginsenoside Rf]"
  Obs value: 48.2
- Molecule: "O=C(/C=C/c1ccc(O)cc1)c1ccc(O)cc1O [Isoliquiritigenin]"
  Obs value: 741

====

# Experiment notes: Exploratory trial: amount of rikkunshito ingredients in urine
# Type: in vivo, human
# Test conditions: 0–4 h after single oral rikkunshito 7.5 g; mean ± S.D., n = 4

- Compound: "CC(C)=CCC[C@](C)(O[C@@H]1O[C@H](CO)[C@@H](O)[C@H](O)[C@H]1O)[C@H]1CC[C@]2(C)[C@@H]1[C@H](O)C[C@@H]1[C@@]3(C)CC[C@H](O)C(C)(C)[C@@H]3[C@@H](O[C@@H]3O[C@H](CO)[C@@H](O)[C@H](O)[C@H]3O)C[C@]12C [Ginsenoside Rg1]"
  Amount in urine, 0–4 h: "620 ± 331 ng"
- Compound: "CCCCCCC/C=C/C(=O)CCc1ccc(O)c(OC)c1 [[8]-Shogaol, [8]-Shogaol]"
  Amount in urine, 0–4 h: "9.00 ± 18.0 ng"
- Compound: "CCCCCCC[C@H](O)CC(=O)CCc1ccc(O)c(OC)c1 [[8]-Gingerol, [8]-Gingerol]"
  Amount in urine, 0–4 h: "8.97 ± 17.9 ng"
- Compound: "C/C=C/C#CC#C/C=C/c1ccco1"
  Amount in urine, 0–4 h: "75.8 ± 152 ng"
- Compound: "CCCCC/C=C/C(=O)CCc1ccc(O)c(OC)c1 [[6]-Shogaol, [6]-Shogaol]"
  Amount in urine, 0–4 h: "459 ± 283 ng"
- Compound: "CC1(C)[C@@H](O[C@@H]2O[C@H](C(=O)O)[C@@H](O)[C@H](O)[C@H]2O)CC[C@]2(C)[C@H]3C(=O)C=C4[C@@H]5C[C@@](C)(C(=O)O)CC[C@]5(C)CC[C@@]4(C)[C@]3(C)CC[C@@H]12 [Glycyrrhetic acid 3-O-glucuronide, Glycyrrhetinic acid 3-O-glucuronide]"
  Amount in urine, 0–4 h: "BQL"
